# TEST_NAME: In vivo single dose PK study in rats
# APPLIED_CONDITIONS: male, Sprague-Dawley, rat, plasma, iv, 1 mg/kg
REPORTED_METRIC: Vd (L/kg)
One number for each entry, in L/kg.

Req: Entry under review: C/C(=C\c1ccc2ccccc2c1Cl)C(=O)Nc1ccc(F)cc1C(=O)O [Compound 54] . Reported Vd?
Resp: 0.069

###

# TEST_NAME: In vivo single dose PK study in rats
# APPLIED_CONDITIONS: male, Sprague-Dawley, rat, plasma, iv, 1 mg/kg
REPORTED_METRIC: Cmax (ng/mL)
Numbers only, in ng/mL.

Req: Name the reported Cmax value associated with the compound C/C(=C\c1ccc2ccccc2c1Cl)C(=O)Nc1ccc(F)cc1C(=O)O [Compound 54]
Resp: 31500

Each recorded value in this set is attributed to paper PMC7558257.
